Recorded AUC(0-inf) for the following compounds
# Procedure text: In vivo pharmacokinetics in mice, intravenous injection and oral administration
# Set-up: species or system mouse
# Experimental setup: mouse; male CD1 mice, oral administration 10 mg/kg, plasma
Lab book: enter the figure in ng·h/mL, no units written.

Please review the entries below; each comes with its answer.
CC1(C)[C@H](NC(=O)c2ccc(N3CCC(CN4CCN(c5ccc6c(c5)C(=O)N(C5CCC(=O)NC5=O)C6=O)CC4)CC3)cc2)C(C)(C)[C@H]1Oc1ccc(C#N)c(Cl)c1 (stereo partly drawn) [Reference substance 1, reference compound]; 53000
CC1(C)C(=O)N(c2ccc(C#N)c(Cl)c2)c2ccc(-c3ncc(N4CC(CN5CCN(c6ccc7c(c6)C(=O)N(C6CCC(=O)NC6=O)C7=O)CC5)C4)cn3)cc21 (stereo not drawn); 70300

Input CC1(C)C(=O)N(c2ccc(C#N)c(Cl)c2)c2ccc(-c3ccc(N4CC(CN5CCN(c6ccc7c(c6)C(=O)N(C6CCC(=O)NC6=O)C7=O)CC5)C4)nc3F)cc21 (stereo not drawn) . Output AUC(0-inf): 71100

====

Each entry below carries its recorded clearance.
# Procedure text: In vivo pharmacokinetics in mice, intravenous injection and oral administration
# Parameters: species or system mouse
# Experimental setup: mouse; male CD1 mice, intravenous administration 1 mg/kg, plasma
// return numeric value only (unit: mL/min/kg, not printed)

CC1(C)[C@H](NC(=O)c2ccc(N3CCC(CN4CCN(c5ccc6c(c5)C(=O)N(C5CCC(=O)NC5=O)C6=O)CC4)CC3)cc2)C(C)(C)[C@H]1Oc1ccc(C#N)c(Cl)c1 (stereo partly drawn) [Reference substance 1, reference compound]; 3.11
CC1(C)C(=O)N(c2ccc(C#N)c(Cl)c2)c2ccc(-c3ncc(N4CC(CN5CCN(c6ccc7c(c6)C(=O)N(C6CCC(=O)NC6=O)C7=O)CC5)C4)cn3)cc21 (stereo not drawn) [Compound 6]; 1.69

The recorded clearance for CC1(C)C(=O)N(c2ccc(C#N)c(Cl)c2)c2ccc(-c3ccc(N4CC(CN5CCN(c6ccc7c(c6)C(=O)N(C6CCC(=O)NC6=O)C7=O)CC5)C4)nc3F)cc21 (stereo not drawn) [Compound 14] is 1.61

====

# Target under test: androgen receptor (Homo sapiens)
# Construct: endogenous in cells; host or cells: VCaP cells
# Sequence (P10275 whole entry): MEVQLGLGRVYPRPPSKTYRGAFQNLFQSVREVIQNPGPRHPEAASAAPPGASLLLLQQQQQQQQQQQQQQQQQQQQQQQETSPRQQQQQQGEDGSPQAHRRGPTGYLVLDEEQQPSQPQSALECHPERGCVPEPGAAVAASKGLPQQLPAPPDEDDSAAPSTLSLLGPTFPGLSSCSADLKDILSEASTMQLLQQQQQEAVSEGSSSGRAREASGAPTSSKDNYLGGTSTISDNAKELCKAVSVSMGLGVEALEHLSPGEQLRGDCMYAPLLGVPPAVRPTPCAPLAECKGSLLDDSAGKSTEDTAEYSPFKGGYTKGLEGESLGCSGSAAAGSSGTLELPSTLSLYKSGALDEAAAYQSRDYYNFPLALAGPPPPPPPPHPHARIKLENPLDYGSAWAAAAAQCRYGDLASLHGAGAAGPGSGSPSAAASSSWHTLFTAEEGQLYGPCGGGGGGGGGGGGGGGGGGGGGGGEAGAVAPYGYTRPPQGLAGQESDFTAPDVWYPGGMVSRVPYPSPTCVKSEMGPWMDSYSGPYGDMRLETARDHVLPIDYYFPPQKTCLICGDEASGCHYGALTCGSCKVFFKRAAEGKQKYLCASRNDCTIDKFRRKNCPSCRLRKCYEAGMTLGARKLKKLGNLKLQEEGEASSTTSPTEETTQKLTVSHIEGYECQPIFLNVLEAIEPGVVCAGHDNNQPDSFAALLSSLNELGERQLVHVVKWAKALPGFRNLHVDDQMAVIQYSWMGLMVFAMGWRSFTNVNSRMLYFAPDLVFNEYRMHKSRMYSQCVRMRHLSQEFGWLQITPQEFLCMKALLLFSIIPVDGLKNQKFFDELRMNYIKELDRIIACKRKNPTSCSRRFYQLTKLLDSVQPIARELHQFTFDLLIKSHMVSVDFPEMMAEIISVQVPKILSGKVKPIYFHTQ
# Procedure text: In-Cell-Western determination of androgen receptor degradation in VCaP cells
# Type: cell-based
# Experimental setup: maximum degradation of AR in VCaP cells; 24 hours treatment
Dmax overview
Express it in %; write the number only.

// below: answered compounds
CC1(C)C(=O)N(c2ccc(C#N)c(Cl)c2)c2ccc(-c3ccc(N4CC(CN5CCN(c6ccc7c(c6)C(=O)N(C6CCC(=O)NC6=O)C7=O)CC5)C4)nc3F)cc21 (stereo not shown); 85
CC1(C)C(=O)N(c2ccc(C#N)c(C(F)(F)F)c2)c2ccc(-c3ccc(N4CC(CN5CCN(c6ccc7c(c6)C(=O)N(C6CCC(=O)NC6=O)C7=O)CC5)C4)cc3)cc21 (stereo not shown); 60
CC1(C)C(=O)N(c2ccc(C#N)c(Cl)c2)c2ccc(-c3ccc(N4CC(CN5CCN(c6ccc7c(c6)C(=O)N(C6CCC(=O)NC6=O)C7=O)CC5)C4)nc3)cc21 (stereo not shown); 56

Turning now to a further compound:
The recorded Dmax for entry CC1(C)C(=O)N(c2ccc(C#N)c(Cl)c2)c2ccc(-c3ccc(N4CC(CN5CCN(c6ccc7c(c6)C(=O)N(C6CCC(=O)NC6=O)C7=O)CC5)C4)cc3)cc21 (stereo not shown) equals 68
